Target: Stb5 (UniProt P38699)
Sequence: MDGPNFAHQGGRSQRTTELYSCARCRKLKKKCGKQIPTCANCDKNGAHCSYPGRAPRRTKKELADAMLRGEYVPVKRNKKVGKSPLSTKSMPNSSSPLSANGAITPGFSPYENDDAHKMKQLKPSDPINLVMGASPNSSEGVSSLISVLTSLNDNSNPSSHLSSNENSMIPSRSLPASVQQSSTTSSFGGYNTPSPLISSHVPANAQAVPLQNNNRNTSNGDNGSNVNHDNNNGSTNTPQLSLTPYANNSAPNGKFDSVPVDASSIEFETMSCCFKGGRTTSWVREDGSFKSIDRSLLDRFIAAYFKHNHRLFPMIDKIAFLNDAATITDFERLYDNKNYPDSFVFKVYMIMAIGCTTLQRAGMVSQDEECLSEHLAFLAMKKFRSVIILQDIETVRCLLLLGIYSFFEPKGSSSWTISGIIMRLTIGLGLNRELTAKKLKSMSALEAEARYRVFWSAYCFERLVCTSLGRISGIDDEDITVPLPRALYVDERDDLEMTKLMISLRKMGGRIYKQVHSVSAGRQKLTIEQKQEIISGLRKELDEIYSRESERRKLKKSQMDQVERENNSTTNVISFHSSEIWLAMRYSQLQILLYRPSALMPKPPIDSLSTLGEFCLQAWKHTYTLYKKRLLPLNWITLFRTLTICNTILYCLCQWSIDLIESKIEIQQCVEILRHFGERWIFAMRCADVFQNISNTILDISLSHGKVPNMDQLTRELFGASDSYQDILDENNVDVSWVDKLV
Assay: PBM E-score (8-mer binding enrichment) (E-score (-0.5 to 0.5)); higher = stronger / more preferred TF binding
Settings: protein concentration: 200 nM; construct: GST-full length
Whole data set: some 33,000 sequences, median “E-score (-0.5 to 0.5)” near -0.054, cut for the highest 2% near 0.35. The sample as a whole holds a higher share of the highest values than the screen did.
Everything with PBM E-score lower than 0.2 is criterion not met; everything else, including exactly 0.2, is criterion met.

Reference set (3 entries):
biopolymerSequence: CAAAGTGG
labelClass: criterion not met
--
biopolymerSequence: CATCCCGC
labelClass: criterion not met
--
biopolymerSequence: AACGGAGT
labelClass: criterion met

(Q) Determine whether measured PBM E-score meets or exceeds 0.2 for AGCACCAG
(A) criterion not met

(Q) Determine whether measured PBM E-score meets or exceeds 0.2 for GGGAAATA
(A) criterion not met

(Q) Determine whether measured PBM E-score meets or exceeds 0.2 for AATCCCGA
(A) criterion met

(Q) Determine whether measured PBM E-score meets or exceeds 0.2 for GCGCGGCA
(A) criterion met

(Q) Determine whether measured PBM E-score meets or exceeds 0.2 for GGACCGCC
(A) criterion met

(Q) Determine whether measured PBM E-score meets or exceeds 0.2 for ACGCGGCA
(A) criterion not met

(Q) Determine whether measured PBM E-score meets or exceeds 0.2 for GGGGGACA
(A) criterion not met

(Q) Determine whether measured PBM E-score meets or exceeds 0.2 for AACGGACC
(A) criterion met
